System: HT29
Experiment: Cell viability, CellTiter-Glo
Type: cell-based, human
Settings: Homo sapiens, HT-29, 72 h, Experiment 1 HT29, 72 hr
Procedure: For SCD1 small molecule inhibitor experiment, cells were treated with indicated concentration of A37062 (Abbott compound 4c) or G02447171.1 (Daichii compound 24) in DMSO or DMSO alone for 48-72 hr. Cell viability was assessed with CellTiter-Glo at 72 hr post treatment (Promega). Activation of caspase 3 and caspase 7 was measured with the Caspase-Glo 3/7 assay kit at 48 hr after treatment (Promega). Values are presented as mean+/−SD of quadruplets. […]
Here the recorded IC50 is given for each entry.
# number only, unit nM dropped from output

Check out these entries, answers already filled in.
- Cc1cccc(CN2CCN(c3cc(=O)[nH]cn3)CC2)c1O [RG11]: 243
- O=c1cc(N2CCN(Cc3cc(Cl)cc(Cl)c3O)CC2)nc[nH]1 [RG1]: 95.7
- O=c1cc(N2CCN(Cc3cc(Br)cc(Br)c3O)CC2)nc[nH]1 [RG8]: 18.7
- O=c1cc(N2CCN(Cc3cc(OC(F)(F)F)ccc3O)CC2)nc[nH]1 [RG14]: 689
- O=c1cc(N2CCN(Cc3cccc(Cl)c3O)CC2)nc[nH]1 [RG5]: 277
- Cc1c(Br)cccc1CN1CCN(c2cc(=O)[nH]cn2)CC1 [RG13]: 129
- O=c1cc(N2CCN(Cc3cc(F)cc(F)c3O)CC2)nc[nH]1 [RG4]: 547
- O=c1cc(N2CCN(Cc3cc(Cl)ccc3[N+](=O)[O-])CC2)nc[nH]1 [RG7]: 89.7
- O=c1cc(N2CCN(Cc3cc(Cl)cc(Br)c3O)CC2)nc[nH]1 [RG3]: 42.6
- O=c1cc(N2CCN(Cc3cc(I)ccc3O)CC2)nc[nH]1 [RG2]: 683

Per the records, this molecule ( O=c1cc(N2CCN(Cc3cc(Cl)ccc3O)CC2)nc[nH]1 [RG6] ) has IC50 equal to 330

Lookup result for Cc1cc(Cl)cc(CN2CCN(c3cc(=O)[nH]cn3)CC2)c1O [RG12] ; measured IC50: 378

These entries and their values trace back to patent US9358250B2.
